Measured IC50 of individual entries
Target: PK-LDH
Experiment: Activity against auxiliary enzymes PK-LDH
Format: biochemical
Response body: numeric value in µM, unit text excluded.

>  <sample-smiles>
COC(=O)c1ccc(NC(=O)Nc2cccc(S(=O)(=O)N3CCCC3)c2)cc1

>  <target-or-system>
PK-LDH

>  <IC50, µM>
242

$$$$
>  <sample-smiles>
O=C(Nc1ccc(C(F)(F)F)cc1)Nc1cccc(S(=O)(=O)N2CCCC2)c1

>  <target-or-system>
PK-LDH

>  <IC50, µM>
73

$$$$

Field request: IC50 | item: O=C(Nc1ccc([N+](=O)[O-])cc1)Nc1cccc(S(=O)(=O)N2CCOCC2)c1
104

---

Molecular target: EcIspE (Escherichia coli, UniProt P62615)
Sequence (P62615 whole entry): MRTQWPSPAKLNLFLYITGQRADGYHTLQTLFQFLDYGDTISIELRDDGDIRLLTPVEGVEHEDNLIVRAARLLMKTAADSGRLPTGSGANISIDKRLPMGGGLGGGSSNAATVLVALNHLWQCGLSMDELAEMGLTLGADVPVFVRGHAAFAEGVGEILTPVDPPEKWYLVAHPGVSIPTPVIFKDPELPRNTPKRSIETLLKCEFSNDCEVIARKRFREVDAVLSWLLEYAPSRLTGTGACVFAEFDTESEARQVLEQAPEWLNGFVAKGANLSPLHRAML
Assay: Activity against auxiliary enzyme EcIspE
Format: biochemical
Readings of pIC50 for the listed compounds
Here pIC50 is given on a logarithmic scale as minus log10 of the concentration in mol/L.

>  <sample-smiles>
O=C(Nc1ccc([N+](=O)[O-])cc1)Nc1cccc(S(=O)(=O)N2CCCCC2)c1

>  <target-or-system>
EcIspE (Escherichia coli, UniProt P62615)

>  <pIC50>
4.31

$$$$

Quick one: pIC50 for O=C(Nc1ccc([N+](=O)[O-])cc1)Nc1ccc(F)c(S(=O)(=O)N2CCOCC2)c1 ?
4.12

---

Recorded IC50 for the following molecules
Molecular target: PK-LDH
Experiment: Activity against auxiliary enzymes PK-LDH
Type: biochemical

// below: answered molecules
>  <molecule>
O=C(Nc1ccc([N+](=O)[O-])cc1)Nc1ccc(F)c(S(=O)(=O)N2CCOCC2)c1 [Compound 31]

>  <target-or-system>
PK-LDH

>  <result>
> 500 µM

$$$$
>  <molecule>
O=C(Nc1ccc([N+](=O)[O-])cc1)Nc1cccc(S(=O)(=O)N2CCCCC2)c1 [Compound 26]

>  <target-or-system>
PK-LDH

>  <result>
> 500 µM

$$$$

// next item, IC50 requested
Recorded IC50 for CS(=O)(=O)c1ccc(NC(=O)Nc2cccc(S(=O)(=O)N3CCCC3)c2)cc1 [Compound 9] , please?
> 500 µM

---

Biological target: EcIspE (Escherichia coli, UniProt P62615)
Assay: Activity against auxiliary enzyme EcIspE
Format: biochemical
pIC50: −log10 of the molar value.
assay-readout: pIC50

>  <molecule>
O=C(Nc1ccc([N+](=O)[O-])cc1)Nc1cccc(S(=O)(=O)N2CCOCC2)c1 [Compound 27]

>  <pIC50>
< 3.30

$$$$

Find the measured pIC50: item COC(=O)c1ccc(NC(=O)Nc2cccc(S(=O)(=O)N3CCCC3)c2)cc1 [Compound 7] , target or system EcIspE (Escherichia coli, UniProt P62615).
< 3.30

Provide the documented pIC50 with EcIspE (Escherichia coli, UniProt P62615) as the system for CS(=O)(=O)c1ccc(NC(=O)Nc2cccc(S(=O)(=O)N3CCCC3)c2)cc1 [Compound 9]
< 3.30
